# Experimental System: PI3Kα (Homo sapiens, UniProt P42336)
# Construct: His tag (pFastbac HTb vector) (N); FLAG; made in house; host or cells: Sf21 insect cells (baculovirus)
# Sequence (P42336 whole entry): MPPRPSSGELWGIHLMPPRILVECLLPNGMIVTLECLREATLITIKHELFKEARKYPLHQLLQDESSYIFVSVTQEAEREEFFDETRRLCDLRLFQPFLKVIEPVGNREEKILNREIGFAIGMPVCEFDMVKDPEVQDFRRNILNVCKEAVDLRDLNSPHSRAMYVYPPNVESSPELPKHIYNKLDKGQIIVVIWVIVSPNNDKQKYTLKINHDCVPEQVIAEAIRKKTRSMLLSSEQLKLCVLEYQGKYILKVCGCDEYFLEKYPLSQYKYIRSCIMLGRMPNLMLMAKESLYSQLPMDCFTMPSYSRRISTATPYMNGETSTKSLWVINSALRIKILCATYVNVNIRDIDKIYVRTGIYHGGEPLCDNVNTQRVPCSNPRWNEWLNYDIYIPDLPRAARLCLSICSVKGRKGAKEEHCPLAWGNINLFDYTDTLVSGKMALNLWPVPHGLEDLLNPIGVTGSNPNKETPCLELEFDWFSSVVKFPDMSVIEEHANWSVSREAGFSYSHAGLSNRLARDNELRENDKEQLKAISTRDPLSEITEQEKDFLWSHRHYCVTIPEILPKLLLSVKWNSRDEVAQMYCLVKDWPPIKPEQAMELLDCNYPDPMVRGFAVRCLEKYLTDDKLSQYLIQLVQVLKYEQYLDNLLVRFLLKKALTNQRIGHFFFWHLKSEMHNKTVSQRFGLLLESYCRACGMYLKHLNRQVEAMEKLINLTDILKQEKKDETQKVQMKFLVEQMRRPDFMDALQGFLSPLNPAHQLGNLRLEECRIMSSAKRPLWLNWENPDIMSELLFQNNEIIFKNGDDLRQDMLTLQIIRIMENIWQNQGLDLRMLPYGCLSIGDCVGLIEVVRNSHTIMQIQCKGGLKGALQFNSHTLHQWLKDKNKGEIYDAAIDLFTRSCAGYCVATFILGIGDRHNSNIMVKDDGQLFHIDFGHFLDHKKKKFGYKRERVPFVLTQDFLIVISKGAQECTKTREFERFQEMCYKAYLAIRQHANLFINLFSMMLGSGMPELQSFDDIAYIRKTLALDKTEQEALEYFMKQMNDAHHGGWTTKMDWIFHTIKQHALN
# Sequence (P27986 whole entry partner): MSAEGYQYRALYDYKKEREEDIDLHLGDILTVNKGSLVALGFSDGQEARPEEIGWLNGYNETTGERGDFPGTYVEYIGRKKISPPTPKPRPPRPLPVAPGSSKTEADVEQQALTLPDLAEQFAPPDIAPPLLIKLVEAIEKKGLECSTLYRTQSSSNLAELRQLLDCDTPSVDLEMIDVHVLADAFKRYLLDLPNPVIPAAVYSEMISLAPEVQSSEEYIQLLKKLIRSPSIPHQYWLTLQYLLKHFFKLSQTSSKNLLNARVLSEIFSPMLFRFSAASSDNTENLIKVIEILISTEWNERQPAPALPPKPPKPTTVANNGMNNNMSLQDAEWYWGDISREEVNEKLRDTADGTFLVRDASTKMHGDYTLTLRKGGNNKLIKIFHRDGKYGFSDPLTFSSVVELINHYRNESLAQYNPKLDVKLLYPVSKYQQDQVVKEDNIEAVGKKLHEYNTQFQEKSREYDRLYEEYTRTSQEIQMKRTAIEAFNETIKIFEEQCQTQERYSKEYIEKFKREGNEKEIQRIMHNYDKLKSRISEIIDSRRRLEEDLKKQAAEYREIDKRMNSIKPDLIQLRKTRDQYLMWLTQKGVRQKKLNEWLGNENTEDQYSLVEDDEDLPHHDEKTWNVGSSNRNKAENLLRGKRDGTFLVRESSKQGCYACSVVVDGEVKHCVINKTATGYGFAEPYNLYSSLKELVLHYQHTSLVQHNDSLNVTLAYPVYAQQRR
# Measurement Protocol: Biochemical assay of PI3K potency and selectivity using 20 μM ATP, Alpha
# Condition Description: read-out: percent activity remaining at 100 μM, 20 μM ATP; 100 μM compound did not inhibit by at least 50%
Threshold check on remaining activity at 100 µM: strictly below 80% is Y; on or above 80% is N.

# Compound, Cat
records = [
    ("CCCCn1c(CSc2ncnc3[nH]cnc23)nc2ccccc2c1=O [Compound D-038]", "Y"),
    ("COc1cccc(-n2c(CSc3ncnc4[nH]cnc34)nc3ccccc3c2=O)c1 [Compound D-040]", "Y"),
    ("O=c1c2cc(F)c(F)cc2nc(CSc2ncnc3[nH]cnc23)n1-c1ccccc1Cl [Compound D-027]", "Y"),
    ("O=c1c2c(F)cccc2nc(CSc2ncnc3[nH]cnc23)n1Cc1ccccc1 [Compound D-043]", "N"),
    ("CCCCn1c(Cn2cnc3c(N)ncnc32)nc2ccccc2c1=O [Compound D-050]", "N"),
    ("CCOC(=O)Cn1c(CSc2ncnc3[nH]cnc23)nc2cccc(F)c2c1=O [Compound D-045]", "N"),
    ("O=c1c2ccccc2nc(CSc2ncnc3[nH]cnc23)n1-c1ccncc1 [Compound D-042]", "Y"),
    ("Nc1ncnc2c1ncn2Cc1nc2ccc(Cl)cc2c(=O)n1-c1ccccc1Cl [Compound D-004]", "N"),
    ("O=c1c2c(Cl)cccc2nc(CSc2ncnc3[nH]cnc23)n1-c1ccccc1F [Compound D-011]", "Y"),
    ("Nc1ncnc2c1ncn2Cc1nc2cccc(F)c2c(=O)n1-c1ccccc1Cl [Compound D-005]", "N"),
    ("O=c1c2cc(Cl)ccc2nc(CSc2ncnc3[nH]cnc23)n1-c1ccccc1Cl [Compound D-020]", "Y"),
    ("O=c1c2c(Cl)cccc2nc(CSc2ncnc3[nH]cnc23)n1-c1ccccc1Cl [Compound D-025]", "Y"),
    ("O=c1c2ccccc2nc(CSc2ncnc3[nH]cnc23)n1-c1ccccc1 [Compound D-121]", "Y"),
    ("Nc1ncnc2c1ncn2Cc1nc2ccc(Br)cc2c(=O)n1-c1ccccc1Cl [Compound D-002]", "N"),
]

---

# Experimental System: PI3Kβ (Homo sapiens, UniProt P42338)
# Construct: His tag (pFastbac HTa vector) (N); FLAG (N); made in house; host or cells: Sf21 insect cells (baculovirus)
# Sequence (P42338 whole entry): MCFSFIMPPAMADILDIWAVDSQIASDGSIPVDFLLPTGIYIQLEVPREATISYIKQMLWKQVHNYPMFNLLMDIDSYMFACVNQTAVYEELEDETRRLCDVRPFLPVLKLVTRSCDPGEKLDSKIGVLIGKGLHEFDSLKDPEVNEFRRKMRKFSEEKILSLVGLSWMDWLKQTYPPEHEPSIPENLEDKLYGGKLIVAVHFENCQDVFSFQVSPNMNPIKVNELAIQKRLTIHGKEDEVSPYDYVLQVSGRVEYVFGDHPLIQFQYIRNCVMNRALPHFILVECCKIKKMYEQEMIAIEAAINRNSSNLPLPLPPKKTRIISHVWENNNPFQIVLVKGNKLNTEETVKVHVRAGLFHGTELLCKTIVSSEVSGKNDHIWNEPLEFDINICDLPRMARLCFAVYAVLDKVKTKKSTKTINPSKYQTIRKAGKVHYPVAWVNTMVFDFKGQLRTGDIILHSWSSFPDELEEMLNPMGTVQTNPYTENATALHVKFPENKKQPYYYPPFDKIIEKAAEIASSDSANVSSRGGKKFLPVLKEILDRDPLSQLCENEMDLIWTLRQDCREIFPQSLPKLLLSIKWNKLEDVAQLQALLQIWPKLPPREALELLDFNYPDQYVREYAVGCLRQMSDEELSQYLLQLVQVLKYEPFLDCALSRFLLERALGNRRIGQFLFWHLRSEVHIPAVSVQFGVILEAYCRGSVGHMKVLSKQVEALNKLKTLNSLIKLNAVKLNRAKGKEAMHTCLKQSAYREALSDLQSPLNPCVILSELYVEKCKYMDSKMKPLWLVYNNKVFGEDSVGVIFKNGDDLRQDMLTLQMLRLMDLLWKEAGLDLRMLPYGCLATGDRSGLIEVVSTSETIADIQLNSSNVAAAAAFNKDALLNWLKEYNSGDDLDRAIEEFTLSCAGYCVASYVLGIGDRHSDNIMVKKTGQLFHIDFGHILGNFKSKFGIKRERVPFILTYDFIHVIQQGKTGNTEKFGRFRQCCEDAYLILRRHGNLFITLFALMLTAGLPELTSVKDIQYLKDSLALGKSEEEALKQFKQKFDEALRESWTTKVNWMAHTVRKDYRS
# Sequence (P27986 whole entry partner): as the sequence (P27986 whole entry partner) above
# Measurement Protocol: Biochemical assay of PI3K potency and selectivity using 20 μM ATP, Beta
# Condition Description: 20 μM ATP; ratio of IC50 values; > = hypothetical ratio with 100 μM substituted for the missing IC50
Documented Beta/Delta Ratio across a set of compounds

# Compound, Limit Qualifier, Beta/Delta Ratio
records = [
    ("COc1ccccc1-n1c(CSc2ncnc3[nH]cnc23)nc2ccccc2c1=O [Compound D-036]", "=", 69),
    ("Cc1cccc2nc(CSc3ncnc4[nH]cnc34)n(-c3ccccc3C(C)C)c(=O)c12 [Compound D-035]", "=", 65),
    ("CCCCn1c(Cn2cnc3c(N)ncnc32)nc2ccccc2c1=O [Compound D-050]", "=", 26),
    ("Nc1ncnc2c1ncn2Cc1nc2ccc(Cl)cc2c(=O)n1-c1ccccc1Cl [Compound D-004]", ">", 1.6),
]
